src = the supplement of paper PMC12855868

Quick list: scaled log2 fold change per entry.
B1: library; numbered along this chain (parent)
chain: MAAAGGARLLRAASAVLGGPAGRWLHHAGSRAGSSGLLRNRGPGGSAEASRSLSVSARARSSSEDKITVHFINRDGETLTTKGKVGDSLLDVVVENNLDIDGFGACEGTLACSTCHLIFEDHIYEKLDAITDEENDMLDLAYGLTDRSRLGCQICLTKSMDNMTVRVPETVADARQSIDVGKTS

- Variants of: B1
- procedure-details: scaled log2 fold change in cell abundance, elesclomol vs control (0 = silent mean, 1 = nonsense mean) (scaled log2 ratio); higher = higher viability under elesclomol (loss of FDX1 cuproptosis function);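 note: variant abundance is its share of total variant reads in each endpoint sample, from next-generation sequencing of the integrated ORF PCR-amplified out of genomic DNA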
- condition-info: with HEK293T FDX1 KO; elesclomol 40 nM; glucose 10 mM; 11 days
measured-property: scaled log2 fold change

INSERT INTO measurements (mutation_id, value_reported) VALUES
  ('D132M', -0.451),
  ('L127T', -0.0113),
  ('D132W', -0.335),
  ('L117M', -0.247),
  ('D101P', -0.96),
  ('S14K', 0.475),
  ('E133N', -0.0813),
  ('T81K', 0.178),
  ('G42T', 0.377),
  ('T78D', -0.427),
  ('K66Y', -0.0505),
  ('L156A', -1),
  ('L37S', -0.131),
  ('S148W', 0.172),
  ('C115W', 1.36),
  ('L140Q', -1.41),
  ('L9F', 0.0924),
  ('L38D', -0.187),
  ('C112A', 1.03),
  ('G18W', -0.224),
  ('D87K', 0.127),
  ('Q153D', 0.615),
  ('V93Y', 1.12),
  ('L138W', 0.749),
  ('S61A', 0.782),
  ('L110H', 0.156),
  ('S35T', 0.526),
  ('R8P', -0.395),
  ('G42M', 0.622),
  ('D132E', 0.371),
  ('A141R', 0.0982),
  ('M160Q', 0.682),
  ('C152G', 1.28),
  ('D87Q', 0.511),
  ('C115Y', 0.829),
  ('E48H', 0.92),
  ('E95G', 0.982),
  ('G151V', -0.147),
  ('N162L', -0.341),
  ('V93D', 0.496),
  ('E95S', 0.071),
  ('V165I', -0.249),
  ('I118D', 0.0453),
  ('V171W', 0.292),
  ('G42N', -0.235),
  ('K126Q', -0.036);
